Reported values: pIC50 for Sodium-dependent serotonin transporter (Rattus norvegicus), one per item.
Quick note: pIC50 means taking -log10 of the concentration in moles per liter.

Completed entries (count: 8):
| structure.smiles.string | pIC50 |
| --- | --- |
| N#Cc1ccc(CN[C@@H]2CC[C@H](C(c3ccccc3)c3ccccc3)NC2)cc1 | 5.81 |
| c1ccc(CN[C@@H]2CC[C@H](C(c3ccccc3)c3ccccc3)NC2)cc1 | 5.67 |
| c1ccc(C(c2ccccc2)[C@H]2CC[C@@H](NCc3csc4ccccc34)CN2)cc1 | 5.56 |
| Fc1ccc(CN[C@H]2CC[C@@H](C(c3ccccc3)c3ccccc3)NC2)cc1 | 5.88 |
| c1ccc(C(c2ccccc2)[C@H]2CC[C@@H](NCc3c[nH]c4ccccc34)CN2)cc1 | 5.52 |
| Fc1ccc(CN[C@@H]2CC[C@H](C(c3ccccc3)c3ccccc3)NC2)cc1F | 5.65 |
| N#Cc1ccc(CN[C@H]2CC[C@@H](C(c3ccccc3)c3ccccc3)NC2)cc1 | 6.36 |
| Oc1ccc(CN[C@@H]2CC[C@H](C(c3ccccc3)c3ccccc3)NC2)cc1 | 6.06 |

Now take the following compound into account.
Response field pIC50 (Sodium-dependent serotonin transporter (Rattus norvegicus)) for item `c1ccc(C(c2ccccc2)[C@H]2CC[C@@H](NCc3cc4ccccc4[nH]3)CN2)cc1` : 5.74
